Tested on: HCT-116
testName: Antiproliferative activity against human HCT-116 cells assessed as reduction in cell viability after 72 hrs by CellTiter Glo assay
Assay type: functional, cell-based
cond: HCT-116, 72 h
readoutKind: pIC50
// pIC50 here means minus log10 of the molar concentration (mol/L)

Exercise: Give its pIC50 value. Item: COc1cccc2c1C(=O)c1c(O)c3c(c(O)c1C2=O)C[C@@](O)(C(=O)CO)C[C@@H]3O[C@H]1C[C@H](N)[C@H](O)[C@H](C)O1
Key: 4.25
